Assay: Metabolic stability in CD-1 mouse brain assessed as parent compound remaining measured after 30 mins by radio-HPLC analysis
Assay type: ADME, tissue-based
Details: read-out: Stability

- chemical string: "[2H]C([2H])([18F])C([2H])([2H])C([2H])([2H])C([2H])([2H])n1c(=O)c(C(=O)NC23CC4CC(CC(C4)C2)C3)cc2cccnc21"
  remaining at 0.5 h: "85%"

====

Biological target: UniProtKB P34972
Sequence (P34972 whole entry): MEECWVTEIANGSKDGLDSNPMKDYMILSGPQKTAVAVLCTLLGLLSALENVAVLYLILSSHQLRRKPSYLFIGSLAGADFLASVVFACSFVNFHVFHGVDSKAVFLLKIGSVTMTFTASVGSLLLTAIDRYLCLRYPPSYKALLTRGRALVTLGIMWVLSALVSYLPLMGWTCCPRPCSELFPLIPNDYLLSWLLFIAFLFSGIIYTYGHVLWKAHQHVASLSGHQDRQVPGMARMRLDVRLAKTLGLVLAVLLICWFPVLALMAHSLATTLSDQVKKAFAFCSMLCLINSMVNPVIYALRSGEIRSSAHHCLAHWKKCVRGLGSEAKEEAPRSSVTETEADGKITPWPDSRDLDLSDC
Assay: Displacement of [18F]-LU13 from human CB2 receptor transfected in CHO cells membrane homogenate incubated for 90 mins by competitive radioligand binding assay
pIC50: −log10 of the molar value.

- chemical string: "O=C(NC12CC3CC(CC(C3)C1)C2)c1cc2cccnc2n(CCCCF)c1=O"
  pIC50: 8.93

====

Assay: Metabolic stability in CD-1 mouse spleen assessed as parent compound remaining measured after 30 mins by radio-HPLC analysis
Assay type: ADME, tissue-based
Settings: read-out: Stability

- chemical string: "[2H]C([2H])([18F])C([2H])([2H])C([2H])([2H])C([2H])([2H])n1c(=O)c(C(=O)NC23CC4CC(CC(C4)C2)C3)cc2cccnc21"
  remaining at 0.5 h: "95%"

====

Target: UniProt:P34972
Test: Inhibition of human CB2 receptor assessed as inhibition constant
Assay type: functional
readout label: Ki (nM)

- chemical string: "[2H]C([2H])([18F])C([2H])([2H])C([2H])([2H])OC(=O)C(CC)(CC)NC(=O)c1ccc(N2CC(OC)C2)c(OC[C@H]2C[C@@H]2CO)n1"
  result number: 0.6

====

We begin with a simple list: items and their reported log10 Ki.
Target: Cannabinoid receptor 1 (Homo sapiens, UniProt P21554)
Sequence (P21554 whole entry): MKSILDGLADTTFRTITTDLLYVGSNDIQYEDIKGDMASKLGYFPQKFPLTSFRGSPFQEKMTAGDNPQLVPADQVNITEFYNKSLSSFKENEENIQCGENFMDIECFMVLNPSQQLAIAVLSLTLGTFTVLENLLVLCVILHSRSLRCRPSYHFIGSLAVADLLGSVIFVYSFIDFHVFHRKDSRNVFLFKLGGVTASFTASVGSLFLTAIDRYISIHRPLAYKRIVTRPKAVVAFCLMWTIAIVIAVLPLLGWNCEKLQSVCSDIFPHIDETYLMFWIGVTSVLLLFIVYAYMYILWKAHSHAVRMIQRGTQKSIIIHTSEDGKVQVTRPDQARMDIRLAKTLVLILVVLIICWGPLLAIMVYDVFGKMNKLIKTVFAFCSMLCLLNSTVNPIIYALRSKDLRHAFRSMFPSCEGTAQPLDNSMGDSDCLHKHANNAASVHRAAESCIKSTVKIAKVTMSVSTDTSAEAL
Experiment: Displacement of [3H]-SR141716A from recombinant human CB1 receptor expressed in CHO cells membrane incubated for 90 mins
readout label: log10 Ki (log10 of the value in nM)

- compound: "C[C@H]1CC[C@H](NC(=O)c2cc3cc(-c4ccco4)cnc3n(CCCF)c2=O)CC1"
  log10 Ki: 3.83
- compound: "C[C@H]1CC[C@@H](NC(=O)c2cc3cc(-c4ccco4)cnc3n(Cc3ccc(F)cc3)c2=O)CC1"
  log10 Ki: 0.70
- compound: "O=C(NCc1ccc(F)cc1)c1cc2cccnc2n(CCCCF)c1=O"
  log10 Ki: 3.04
- compound: "O=C(NC12CC3CC(CC(C3)C1)C2)c1cc2cccnc2n(Cc2ccc(F)cc2)c1=O"
  log10 Ki: 0.18
- compound: "CC1CCC(NC(=O)c2cc3cc(Br)cnc3n(Cc3ccc(F)cc3)c2=O)CC1 (mixture of isomers)"
  log10 Ki: 0.23
- compound: "C[C@H]1CC[C@@H](NC(=O)c2cc3cc(-c4ccco4)cnc3n(Cc3ccccc3F)c2=O)CC1"
  log10 Ki: 1.81
- compound: "C[C@H]1CC[C@H](NC(=O)c2cc3cccnc3n(CCOCCF)c2=O)CC1"
  log10 Ki: 2.89
- compound: "C[C@H]1CC[C@@H](NC(=O)c2cc3cc(-c4ccco4)cnc3n(CCCCF)c2=O)CC1"
  log10 Ki: 0.52
- compound: "C[C@H]1CC[C@H](NC(=O)c2cc3cccnc3n(CCCF)c2=O)CC1"
  log10 Ki: 3.66
- compound: "C[C@H]1CC[C@H](NC(=O)c2cc3cc(-c4ccco4)cnc3n(Cc3ccc(F)cc3)c2=O)CC1"
  log10 Ki: 1.93
- compound: "C[C@H]1CC[C@@H](NC(=O)c2cc3cc(-c4ccco4)cnc3n(CCCF)c2=O)CC1"
  log10 Ki: 1.45
- compound: "CC1CCC(NC(=O)c2cc3cc(Br)cnc3n(CCCCF)c2=O)CC1 (mixture of isomers)"
  log10 Ki: 0.68
- compound: "C[C@H]1CC[C@H](NC(=O)c2cc3cc(-c4ccco4)cnc3n(CCCCF)c2=O)CC1"
  log10 Ki: 1.69
- compound: "C[C@H]1CC[C@H](NC(=O)c2cc3cc(-c4ccco4)cnc3n(Cc3cccc(F)c3)c2=O)CC1"
  log10 Ki: 3.70
